Biological target: cloned human alpha-1A adrenergic receptors (α1a) (Homo sapiens, UniProt P35348)
Construct: expressed in transfected cells; host or cells: CHO cells, G418-resistant clone, pcDNA3 vector; membrane fragments
Sequence (P35348 whole entry, the tested form may be a part): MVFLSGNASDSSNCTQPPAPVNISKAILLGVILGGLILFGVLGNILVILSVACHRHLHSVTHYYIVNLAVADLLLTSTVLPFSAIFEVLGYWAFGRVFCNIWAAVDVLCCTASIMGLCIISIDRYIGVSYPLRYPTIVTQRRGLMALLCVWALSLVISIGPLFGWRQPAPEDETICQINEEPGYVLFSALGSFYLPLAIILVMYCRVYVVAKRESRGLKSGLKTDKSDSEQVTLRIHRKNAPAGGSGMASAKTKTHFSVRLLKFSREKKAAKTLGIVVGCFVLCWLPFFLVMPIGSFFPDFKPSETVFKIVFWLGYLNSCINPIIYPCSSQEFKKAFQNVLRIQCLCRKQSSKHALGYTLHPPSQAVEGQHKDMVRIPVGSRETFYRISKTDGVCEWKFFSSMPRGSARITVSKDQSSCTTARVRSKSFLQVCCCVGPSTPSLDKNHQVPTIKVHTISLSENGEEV
Experiment: [3H]Prazosin binding to cloned human alpha-1A adrenergic receptors expressed in CHO cells
Conditions: human α-1; 6-fluoro vs 6-trifluoromethyl benzo[b]thiophene pairs; read-out: halpha 1 Ki (nM) h = human
REPORTED_METRIC: Ki (nM)

Recorded Ki, per entry:
[[record]]
compound = "O=C(NCCCCN1CCN(c2csc3cc(C(F)(F)F)ccc23)CC1)c1sc2ccccc2c1Cl [compound 815546]"
target_entity = "cloned human alpha-1A adrenergic receptors (α1a) (Homo sapiens, UniProt P35348)"
reported_metric = "Ki"
observed = 59

[[record]]
compound = "O=C(NCCCCN1CCN(c2csc3cc(C(F)(F)F)ccc23)CC1)c1c(F)cccc1F [compound 815557]"
target_entity = "cloned human alpha-1A adrenergic receptors (α1a) (Homo sapiens, UniProt P35348)"
reported_metric = "Ki"
observed = 72

[[record]]
compound = "O=C(NCCCCN1CCN(c2csc3cc(C(F)(F)F)ccc23)CC1)c1ccc(F)cc1F [compound 815542]"
target_entity = "cloned human alpha-1A adrenergic receptors (α1a) (Homo sapiens, UniProt P35348)"
reported_metric = "Ki"
observed = 68

[[record]]
compound = "O=C(NCCCCN1CCN(c2csc3cc(C(F)(F)F)ccc23)CC1)c1cc2ccccc2s1 [814238A]"
target_entity = "cloned human alpha-1A adrenergic receptors (α1a) (Homo sapiens, UniProt P35348)"
reported_metric = "Ki"
observed = 78.3

[[record]]
compound = "O=C(NCCCCN1CCN(c2csc3cc(C(F)(F)F)ccc23)CC1)c1ccc2c(c1)OCO2 [compound 815544]"
target_entity = "cloned human alpha-1A adrenergic receptors (α1a) (Homo sapiens, UniProt P35348)"
reported_metric = "Ki"
observed = 62


a. O=C(NCCCCN1CCN(c2csc3cc(C(F)(F)F)ccc23)CC1)c1ccc(Br)cc1 [compound 815551]
b. CCOc1ccc(C(=O)NCCCCN2CCN(c3csc4cc(C(F)(F)F)ccc34)CC2)cc1 [compound 815541]
c. O=C(NCCCCN1CCN(c2csc3cc(C(F)(F)F)ccc23)CC1)c1ccco1 [compound 815556]
d. O=C(NCCCCN1CCN(c2csc3cc(F)ccc23)CC1)c1ccc(-c2ccccc2)cc1 [813585A]
Hey, can you sort those compounds up there by Ki, smallest first? # list labels per requested ordering
d, c, a, b

----------
Molecular target: cloned human dopamine D3 receptors (Homo sapiens)
Construct: expressed in transfected cells; membrane homogenate
Assay: [N-Methyl-3H]Spiroperidol binding to cloned human dopamine D3 receptors (Protocol 1)
Settings: read-out: D3K1
pKi: −log10 of the molar value.
REPORTED_METRIC: pKi

I. O=C(NCCCCN1CCN(c2csc3cc(C(F)(F)F)ccc23)CC1)c1ccccc1Br
II. CCCCOc1ccc(C(=O)NCCCCN2CCN(c3c(Cl)sc4cc(C(F)(F)F)ccc34)CC2)cc1
Identify the item whose pKi is the smaller number: I or II Choose, then provide that item's label.
II

----------
Biological target: Alpha-1 adrenergic receptors from rat brain cortex
Assay: [3H]Prazosin binding to alpha-1 adrenergic receptors from rat brain cortex (Protocol 4)
Conditions: r = rat; piperazines (n = 1) vs homopiperazines (n = 2); read-out: r-α1 Ki
REPORTED_METRIC: Ki (nM)

Recorded results for 3 compounds are shown here.
[[record]]
smiles_record = "O=C(NCCCCN1CCN(c2csc3cc(F)ccc23)CC1)c1cc2ccccc2s1"
target_entity = "Alpha-1 adrenergic receptors from rat brain cortex"
observed = 5

[[record]]
smiles_record = "COc1cccc(C(=O)NCCCCN2CCN(c3csc4cc(F)ccc34)CC2)c1"
target_entity = "Alpha-1 adrenergic receptors from rat brain cortex"
observed = 21.9

[[record]]
smiles_record = "O=C(NCCCCN1CCN(c2csc3cc(F)ccc23)CC1)c1ccc2[nH]ccc2c1"
target_entity = "Alpha-1 adrenergic receptors from rat brain cortex"
observed = 5


1. O=C(NCCCCN1CCN(c2csc3cc(F)ccc23)CC1)c1cc2ccccc2[nH]1
2. O=C(NCCCCN1CCN(c2csc3cc(F)ccc23)CC1)c1ccc2ccccc2c1
Which one would you say has the larger Ki value: 1 , or 2 ? Please identify the chosen entry by its label.
2

A. O=C(NCCCCN1CCN(c2csc3cc(F)ccc23)CC1)c1c[nH]c2ccccc12
B. COc1ccccc1C(=O)NCCCCN1CCN(c2csc3cc(F)ccc23)CC1
Compare A and B and name the one whose reported Ki is smaller. Select an item and report its label.
B

P. O=C(NCCCCN1CCN(c2csc3cc(F)ccc23)CC1)c1ccco1
Q. O=C(NCCCCN1CCN(c2csc3cc(F)ccc23)CC1)c1ccc(C(F)(F)F)cc1
Of P versus Q , which is the one with smaller reported Ki? State the label of the item chosen.
P

----------
Molecular target: cloned human dopamine D3 receptors (Homo sapiens, UniProt P35462)
Construct: expressed in transfected cells; membrane homogenate
Sequence (P35462 whole entry): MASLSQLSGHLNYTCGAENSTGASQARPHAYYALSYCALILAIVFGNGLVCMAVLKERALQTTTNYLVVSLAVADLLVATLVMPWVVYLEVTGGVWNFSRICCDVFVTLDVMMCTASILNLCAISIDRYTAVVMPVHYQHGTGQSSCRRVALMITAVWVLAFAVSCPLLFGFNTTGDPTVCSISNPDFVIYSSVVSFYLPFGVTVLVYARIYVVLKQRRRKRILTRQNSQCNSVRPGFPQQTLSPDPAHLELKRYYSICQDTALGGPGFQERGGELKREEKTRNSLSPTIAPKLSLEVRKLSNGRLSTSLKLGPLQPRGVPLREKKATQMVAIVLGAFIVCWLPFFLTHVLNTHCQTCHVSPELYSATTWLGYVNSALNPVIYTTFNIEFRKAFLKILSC
Experiment: [N-Methyl-3H]Spiroperidol binding to cloned human dopamine D3 receptors (Protocol 1)
Settings: the 13th table, unit inferred; read-out: D3Ki
pKi: −log10 of the molar value.
REPORTED_METRIC: pKi

Examples with their reported pKi follow.
[[record]]
compound = "O=C(Cc1ccc(Cl)cc1)NCCCCN1CCCN(c2csc3cc(F)ccc23)CC1"
target_entity = "cloned human dopamine D3 receptors (Homo sapiens, UniProt P35462)"
observed = 7.89

[[record]]
compound = "Cn1c(C(=O)NCCCCN2CCCN(c3csc4cc(C(F)(F)F)ccc34)CC2)cc2ccccc21"
target_entity = "cloned human dopamine D3 receptors (Homo sapiens, UniProt P35462)"
observed = 7.46

[[record]]
compound = "COc1ccccc1C(=O)NCCCCCN1CCCN(c2csc3cc(F)ccc23)CC1"
target_entity = "cloned human dopamine D3 receptors (Homo sapiens, UniProt P35462)"
observed = 7.46

[[record]]
compound = "O=C(NCCCCCN1CCCN(c2csc3cc(F)ccc23)CC1)c1cccc2ccccc12"
target_entity = "cloned human dopamine D3 receptors (Homo sapiens, UniProt P35462)"
observed = 7.38

[[record]]
compound = "Cc1nn(-c2ccccc2)nc1C(=O)NCCCCN1CCCN(c2csc3cc(C(F)(F)F)ccc23)CC1"
target_entity = "cloned human dopamine D3 receptors (Homo sapiens, UniProt P35462)"
observed = 6.76


I. O=C(NCCCCN1CCCN(c2csc3cc(F)ccc23)CC1)c1cc2ccccc2o1 [S977819]
II. O=C(NCCCCN1CCCN(c2csc3cc(F)ccc23)CC1)c1c[nH]cn1
Returns: the label, I or II , whose recorded pKi is the lower number. State your choice using its label.
II
(II: 8.24, I: 8.49)

----------
Target: cloned human dopamine D3 receptors (Homo sapiens, UniProt P35462)
Construct: expressed in transfected cells; membrane homogenate
Assay: [N-Methyl-3H]Spiroperidol binding to cloned human dopamine D3 receptors (Protocol 1)
Settings: the 15th table; read-out: D3 Ki
Documented pKi across a set of compounds
# pKi: negative log10 of molar concentration; output just the value

[[record]]
compound = "Cc1ccc(C(=O)NCCCCN2C3CCC2CC(c2noc4cc(F)ccc24)C3)cc1 (stereo not drawn) [compound 816344]"
observed = 6.42

[[record]]
compound = "O=C(NCCCCN1C2CCC1CC(c1noc3ccccc13)C2)C1CCCCC1 (stereo not drawn) [compound 816524]"
observed = 6.45

[[record]]
compound = "O=C(Cc1cccs1)NCCCCN1C2CCC1CC(c1noc3ccccc13)C2 (stereo not drawn) [compound 816521]"
observed = 6.48


// lookup pKi for Cc1ccc(C(=O)NCCCCN2C3CCC2CC(c2noc4ccccc24)C3)cc1 (stereo not drawn) [compound 816526]
6.43

Consider the compound O=C(NCCCCN1C2CCC1CC(c1noc3ccccc13)C2)c1cccs1 (stereo not drawn) [compound 816519] and give its measured pKi.
6.52

Give the measured pKi of O=C(NCCCCN1C2CCC1CC(c1noc3ccccc13)C2)c1ccc(F)cc1 (stereo not drawn) [compound 816520] .
6.53

----------
Target: cloned human dopamine D3 receptors (Homo sapiens, UniProt P35462)
Construct: expressed in transfected cells; membrane homogenate
Test: [N-Methyl-3H]Spiroperidol binding to cloned human dopamine D3 receptors (Protocol 1)
Settings: the 14th table; read-out: D3 Ki
REPORTED_METRIC: Ki (nM)

Example compounds with recorded Ki:
[[record]]
compound = "COc1ccc(C(=O)N[C@@H](CO)CCCN2CCN(c3csc4cc(C(F)(F)F)ccc34)CC2)cc1 [compound 815668]"
reported_metric = "Ki"
observed = 150

[[record]]
compound = "O=C(NCCCCCN1CCN(c2csc3cc(C(F)(F)F)ccc23)CC1)c1cccc(C(F)(F)F)c1 [compound 826770]"
reported_metric = "Ki"
observed = 14

[[record]]
compound = "O=C(NCCCCCCN1CCN(c2csc3cc(C(F)(F)F)ccc23)CC1)c1ccc(OC(F)(F)F)cc1 [compound 826749]"
reported_metric = "Ki"
observed = 8.7


P. O=C(N[C@H](CO)CCCN1CCN(c2csc3cc(C(F)(F)F)ccc23)CC1)c1cnccn1 [compound 815702]
Q. O=C(NCCCCCCN1CCN(c2csc3cc(C(F)(F)F)ccc23)CC1)c1cccc(C(F)(F)F)c1 [compound 826752]
Lower value of Ki belongs to which: P or Q ? Response format: the label of the selected entry.
Q
(Q: 14 nM, P: 439 nM)
